These data points were gathered from patent US10357036B2.

Exercise: for every item that follows, state its recorded chromatographic logP.
conditions: reversed-phase C18 HPLC column, logP^a, HPLC-MS method a), reversed-phase column (C18)
A bare number is all that is needed in reply.

Entry N#CCC(=O)NCc1cc(-c2cnn(-c3c(Cl)cc(C(F)(C(F)(F)F)C(F)(F)F)cc3Br)c2)ccc1Cl , chromatographic logP reported as 4.33

Recorded result, CC(=S)NCc1cc(-c2cnn(-c3c(Cl)cc(C(F)(C(F)(F)F)C(F)(F)F)cc3Cl)c2)ccc1Cl , chromatographic logP: 4.98

###

test system: Tetranychus urticae; experiment: Tetranychus urticae spray test, OP-resistant (bean leaf discs); type: in vivo; conditions: 100 g/ha; after 6 days
Assign efficacy to each entry below.
The answer consists of two parts: a number and, after it, its unit.

Reported efficacy ( CC(=O)NCc1cc(-c2cnn(-c3c(Cl)cc(C(F)(C(F)(F)F)C(F)(F)F)cc3C(F)(F)F)c2)ccc1F [Ia-82] ) = 100%

For reference, reported efficacy for CC(=O)N(C)Cc1cc(-c2cnn(-c3c(Cl)cc(C(F)(C(F)(F)F)C(F)(F)F)cc3Cl)c2)ccc1F [Ia-64] stands at 100%

Consider CN(Cc1cc(-c2cnn(-c3c(Cl)cc(C(F)(C(F)(F)F)C(F)(F)F)cc3Cl)c2)ccc1Cl)S(C)(=O)=O [Ic-04] . Its measured efficacy is 100%

Please fill in: efficacy reported for CC(=O)N(C)Cc1cc(-c2cnn(-c3c(Cl)cc(C(F)(C(F)(F)F)C(F)(F)F)cc3OC(F)(F)F)c2)cnc1Cl [Ia-136] = 100%

The reported value for O=C(CC(F)(F)F)NCc1cc(-c2cnn(-c3c(Cl)cc(C(F)(C(F)(F)F)C(F)(F)F)cc3OC(F)(F)F)c2)ccc1F [Ia-19] in terms of efficacy is 90%

// sample CC(=O)N(C)Cc1cc(-c2cnn(-c3c(Cl)cc(C(F)(C(F)(F)F)C(F)(F)F)cc3Br)c2)ccc1Cl [Ia-99] , its efficacy was 100%

Recorded efficacy (molecule C=CCN(Cc1cc(-c2cnn(-c3c(Cl)cc(C(F)(C(F)(F)F)C(F)(F)F)cc3Cl)c2)ccc1Cl)C(C)=O [Ia-113] ): 90%

Record CCC(=O)NCc1cc(-c2cnn(-c3c(Cl)cc(C(F)(C(F)(F)F)C(F)(F)F)cc3Cl)c2)ccc1C(F)(F)F [Ia-72] . Reported efficacy: 100%

Looking up Cc1cc(C(F)(C(F)(F)F)C(F)(F)F)cc(C)c1-n1cc(-c2ccc(F)c(CNC(=O)C3CC3)c2)cn1 [Ia-04] , I see its efficacy listed as 100%

CC(=O)NCc1cccc(-c2cnn(-c3c(Cl)cc(C(F)(C(F)(F)F)C(F)(F)F)cc3C(F)F)c2)c1 [Ia-02] yielded efficacy of 100%

The molecule listed as CC(=O)NCc1cc(-c2cnn(-c3c(F)cc(C(F)(C(F)(F)F)C(F)(F)F)cc3Br)c2)ccc1Cl [Ia-92] shows efficacy equal to 100%

O=C(NCc1cc(-c2cnn(-c3c(Cl)cc(C(F)(C(F)(F)F)C(F)(F)F)cc3Cl)c2)ccc1Cl)C(F)(F)F [Ia-120] has a reported efficacy of 100%

For CCC(=O)NCc1c(F)ccc(-c2cnn(-c3c(Cl)cc(C(F)(C(F)(F)F)C(F)(F)F)cc3C(F)F)c2)c1F [Ia-141] the molecule record lists efficacy as 100%

The molecule CCCN(Cc1cc(-c2cnn(-c3c(Cl)cc(C(F)(C(F)(F)F)C(F)(F)F)cc3Cl)c2)ccc1Cl)C(C)=O [Ia-112] showed efficacy equal to 90%

###

tested on: Tetranychus urticae; experiment: Tetranychus urticae spray test, OP-resistant (bean leaf discs); assay type: in vivo; conditions: 100 g/ha; after 6 days
Endpoint name: efficacy (%)
Respond numerically; units are % and should not be typed.

efficacy measured on CCC(=O)NC1CCc2ccc(-c3cnn(-c4c(Cl)cc(C(F)(C(F)(F)F)C(F)(F)F)cc4OC(F)F)c3)cc21 (stereo not shown) [I-Tc-03] = 100

The compound identified as CCC(=O)NCc1cc(-c2cnn(-c3c(Cl)cc(C(F)(C(F)(F)F)C(F)(F)F)cc3Cl)c2)ccc1C [Ia-81] registered its efficacy at 100

Sure, the documented efficacy for CCC(=O)NCc1c(F)ccc(-c2cnn(-c3c(Cl)cc(C(F)(C(F)(F)F)C(F)(F)F)cc3OC(F)F)c2)c1F [Ia-157] is 90

efficacy reading for CC(=O)N(Cc1cc(-c2cnn(-c3c(Cl)cc(C(F)(C(F)(F)F)C(F)(F)F)cc3Cl)c2)ccc1Cl)CC1CC1 [Ia-116] : 100

###

tested on: Ctenocephalides felis; test: Ctenocephalides felis oral test; type: in vivo; details: 100 ppm in citrated cattle blood; after 2 days
Endpoint name: efficacy (rate of extermination) (%)
Unit % implied. Number only.

Record CCC(=O)N(C)Cc1cc(-c2cnn(-c3c(Cl)cc(C(F)(C(F)(F)F)C(F)(F)F)cc3Cl)c2)ccc1Cl ; system Ctenocephalides felis; efficacy (rate of extermination) = 100

Form field, efficacy (rate of extermination) with Ctenocephalides felis, item CCCCC(=O)NCc1cc(-c2cnn(-c3c(Cl)cc(C(F)(C(F)(F)F)C(F)(F)F)cc3C(F)F)c2)ccc1F : 100

Simply: CCC(=O)NCc1cc(-c2cnn(-c3c(Cl)cc(C(F)(C(F)(F)F)C(F)(F)F)cc3C(F)(F)F)c2)ccc1F , Ctenocephalides felis, efficacy (rate of extermination) = 100

Case CC(=O)NCc1cc(-c2cnn(-c3c(Cl)cc(C(F)(C(F)(F)F)C(F)(F)F)cc3C(F)(F)F)c2)ccc1C , Ctenocephalides felis, efficacy (rate of extermination) recorded as 100

###

tested on: Spodoptera frugiperda; assay: Spodoptera frugiperda spray test; format: in vivo; conditions: 100 g/ha; after 7 days
Endpoint name: efficacy
The reply should read as a number followed by its unit.

CC(=O)NCc1cc(-c2cnn(-c3c(Cl)cc(C(F)(C(F)(F)F)C(F)(F)F)cc3Cl)c2)ccc1Br [Ia-164] has a reported efficacy of 100%

Please fill in: efficacy reported for CCC(=O)NCc1cc(-c2cnn(-c3c(Cl)cc(C(F)(C(F)(F)F)C(F)(F)F)cc3C(F)F)c2)ccc1Cl [Ia-115] = 100%

Lab note: measured efficacy of CC(=O)N(Cc1cc(-c2cnn(-c3c(Cl)cc(C(F)(C(F)(F)F)C(F)(F)F)cc3Cl)c2)ccc1Cl)CC1CC1 [Ia-116] was 100%

The reported value for CCC(=O)N(C)Cc1cc(-c2cnn(-c3c(Cl)cc(C(F)(C(F)(F)F)C(F)(F)F)cc3Cl)c2)ccc1Br [Ia-167] in terms of efficacy is 100%

Reported efficacy of CCC(=O)NCc1cc(-c2cnn(-c3c(C)cc(C(F)(C(F)(F)F)C(F)(F)F)cc3Cl)c2)ccc1F [Ia-66] : 100%

Just so you know, measured efficacy for CCC(=O)NCc1cc(-c2cnn(-c3c(C)cc(C(F)(C(F)(F)F)C(F)(F)F)cc3C)c2)ccc1Cl [Ia-93] came out at 100%

Form field efficacy, entry CCC(=O)NCc1cc(-c2cnn(-c3c(Cl)cc(C(F)(C(F)(F)F)C(F)(F)F)cc3OC(F)F)c2)ccc1Cl [Ia-51] : 100%

// field: efficacy; key: CCC(=O)NCc1cc(-c2cnn(-c3c(Cl)cc(C(F)(C(F)(F)F)C(F)(F)F)cc3Br)c2)ccc1Cl [Ia-89] ; value = 100%

Kindly note the recorded efficacy for CC(=O)NCc1cccc(-c2cnn(-c3c(Cl)cc(C(F)(C(F)(F)F)C(F)(F)F)cc3C(F)(F)F)c2)c1F [Ia-151] , which is 100%

Recorded result, CC(=O)NCc1cc(-c2cnn(-c3c(C)cc(C(F)(C(F)(F)F)C(F)(F)F)cc3C)c2)ccc1F [Ia-13] , efficacy: 100%

Notebook: O=C(NCc1cc(-c2cnn(-c3c(Cl)cc(C(F)(C(F)(F)F)C(F)(F)F)cc3C(F)(F)F)c2)ccc1Cl)C1CC1 [Ia-54] , efficacy read as 100%

Documented efficacy of CCC(=O)NCc1cc(-c2cnn(-c3c(Cl)cc(C(F)(C(F)(F)F)C(F)(F)F)cc3C(F)(F)F)c2)ccc1Cl [Ia-29] : 100%

Documented efficacy of CC(=O)NCc1cccc(-c2cnn(-c3c(Cl)cc(C(F)(C(F)(F)F)C(F)(F)F)cc3OC(F)(F)F)c2)c1 [Ia-38] : 100%

The recorded efficacy for entry O=C(NCc1cc(-c2cnn(-c3c(Cl)cc(C(F)(C(F)(F)F)C(F)(F)F)cc3Cl)c2)ccc1Cl)C(F)(F)F [Ia-120] equals 100%

The measured efficacy associated with CC(=O)NCc1cc(-c2cnn(-c3c(Cl)cc(C(F)(C(F)(F)F)C(F)(F)F)cc3OC(F)F)c2)cnc1Cl [Ia-156] reads 100%
